tested on: KB-3-1; assay: Cytotoxic Profiling of Annotated Libraries Using Quantitative High-Throughput Screening (AID 1296008); settings: Five cell lines viability, CellTiter-Glo ATP luminescence, 48-72 h; hits give low values; note: % is set by controls: 0 for no effect and ±100 for the full control effect; nearly all actives have a fitted effect of over 60% in size
Records with an inconclusive call do not appear.
Measurement name: max response (%)

>  <Molecule>
Cn1c(=O)cc(N2CCCC(N)C2)n(Cc2ccccc2C#N)c1=O (stereo not given)

>  <Measurement name>
max response

>  <Result units>
%

>  <Measured>
8.99

$$$$
>  <Molecule>
CC(=O)O[C@@H]1C[C@@]23C[C@@]24CC[C@H](OC2OC[C@@H](O)[C@H](O)[C@H]2O)C(C)(C)[C@@H]4CC[C@H]3[C@]2(C)CC3OC4(C[C@@H](C)C3[C@@]12C)OCC1(C)OC14 (stereo not given in full)

>  <Measurement name>
max response

>  <Result units>
%

>  <Measured>
-4.87

$$$$
>  <Molecule>
CCc1cc2c(=O)c(-c3nc4ccccc4s3)coc2c(CN2CCCCC2)c1O

>  <Measurement name>
max response

>  <Result units>
%

>  <Measured>
-10.9

$$$$
>  <Molecule>
COc1ccc(/C=C/C(=O)O[C@@H]2[C@@H](OC(C)=O)[C@@H](OC(C)=O)[C@H](O[C@H]3[C@@H]4C=CO[C@@H](O[C@@H]5O[C@H](CO)[C@@H](O)[C@H](O)[C@H]5O)[C@@H]4[C@@]4(CO)O[C@@H]34)O[C@H]2C)cc1O

>  <Measurement name>
max response

>  <Result units>
%

>  <Measured>
9.42

$$$$
>  <Molecule>
COC(=O)C12C(=O)C(C)=C(O)C1(C)C(C)=CC1C34CCC(OC3=O)C(C)(C)C4CCC12C (stereo not given)

>  <Measurement name>
max response

>  <Result units>
%

>  <Measured>
6.41

$$$$
>  <Molecule>
CO/N=C(/C(=O)N[C@@H]1C(=O)N2C(C(=O)O)=C(CSC(=O)c3ccco3)CS[C@H]12)c1csc(N)n1

>  <Measurement name>
max response

>  <Result units>
%

>  <Measured>
-14.5

$$$$
>  <Molecule>
CC(=O)N(CC(C)C(=O)O)c1c(I)cc(I)c(N)c1I (stereo not given)

>  <Measurement name>
max response

>  <Result units>
%

>  <Measured>
-8.47

$$$$
>  <Molecule>
CC1C(=O)CC2C3C(O)CC(C(=O)O)C12CC3(C)C (stereo not given)

>  <Measurement name>
max response

>  <Result units>
%

>  <Measured>
3.18

$$$$
>  <Molecule>
CCCC(=O)O[C@]1(C(=O)COC(C)=O)CC[C@H]2[C@@H]3C[C@H](F)C4=CC(=O)C=C[C@]4(C)[C@@]3(F)[C@@H](O)C[C@@]21C

>  <Measurement name>
max response

>  <Result units>
%

>  <Measured>
20.2

$$$$
>  <Molecule>
O=C1NC(Cc2ccc(O)cc2)C(=O)N2CCCC12 (stereo not given)

>  <Measurement name>
max response

>  <Result units>
%

>  <Measured>
8.78

$$$$
>  <Molecule>
CCOc1c2c(c(OCC)c3ccccc13)C(=O)N(c1ccc(CC(=O)NS(=O)(=O)c3ccccc3)cc1)C2

>  <Measurement name>
max response

>  <Result units>
%

>  <Measured>
1.17

$$$$
>  <Molecule>
CC(=O)OCC(=O)[C@@]1(O)CC[C@H]2[C@@H]3C[C@H](C)C4=CC(=O)C=C[C@]4(C)[C@H]3[C@@H](O)C[C@@]21C

>  <Measurement name>
max response

>  <Result units>
%

>  <Measured>
15.9

$$$$
>  <Molecule>
CCC(=O)OCC(=O)[C@@]1(OC(=O)CC)[C@H](C)C[C@H]2[C@H]3[C@H]([C@@H](O)C[C@@]21C)[C@@]1(C)C=CC(=O)C=C1C[C@H]3Cl

>  <Measurement name>
max response

>  <Result units>
%

>  <Measured>
31.3

$$$$
>  <Molecule>
C/C1=C\C[C@H](O[C@@H]2O[C@H](CO)[C@@H](O)[C@H](O)[C@H]2O)/C(C)=C/[C@H]2OC(=O)[C@H](C)[C@@H]2CC1

>  <Measurement name>
max response

>  <Result units>
%

>  <Measured>
8.78

$$$$
>  <Molecule>
O=C(O)c1cnn(-c2nc3cc(OC(F)(F)F)c(Cl)cc3[nH]2)c1

>  <Measurement name>
max response

>  <Result units>
%

>  <Measured>
4.77

$$$$
